System: Soybean
assayText: post-emergent herbicidal activity, greenhouse
Assay type: in vivo
experimentalParameters: Table II, 4 WAT, 1.12 kg/h
measurementName: post-emergent herbicidal activity index

Some compounds with recorded post-emergent herbicidal activity index:
                                   compound                          measurementname            measured
0  CCOC(=O)CNCP(=O)(O)OC(C#N)CC (stereo not shown) [Example 8]  post-emergent herbicidal activity index  3 (75-99% control)
1  CC(C#N)OP(=O)(O)CNCC(=O)OCc1ccccc1 (stereo not shown) [Example 10]  post-emergent herbicidal activity index  1 (25-49% control)
2  CC(C#N)OP(=O)(CNCC#N)OC(C)C#N (stereo not shown) [Example 12]  post-emergent herbicidal activity index  1 (25-49% control)

[in] // fetch Soybean post-emergent herbicidal activity index for CC(C#N)OP(=O)(O)CNCC(=O)OCCCl (stereo not shown) [Example 7]
[out] 2 (50-74% control)

----------
Below, each entry is listed with its recorded post-emergent herbicidal activity index.
System: Cocklebur
assayText: post-emergent herbicidal activity, greenhouse
Format: in vivo
experimentalParameters: Table I, 4 WAT, 11.2 kg/h

The following compounds have reported results that may help.
In [3]: df
Out[3]:
                                   compound                          measurementname            measured
0  CC(C#N)OP(=O)(O)CNCC(=O)OCCCl (stereo not shown) [Example 7]  post-emergent herbicidal activity index  3 (75-99% control)
1    N#CCCOP(=O)(CNCC#N)OCCC#N [Example 11]  post-emergent herbicidal activity index  1 (25-49% control)
2  CCOC(=O)CNCP(=O)(OCC1COC(C)(C)O1)OCC1COC(C)(C)O1 (stereo not shown) [Example 22]  post-emergent herbicidal activity index   0 (0-24% control)
3  CCOC(=O)CNCP(=O)(OC(C)C(=O)OCC)OC(C)C(=O)OCC (stereo not shown) [Example 16]  post-emergent herbicidal activity index  1 (25-49% control)
4  CCOC(=O)CNCP(=O)(OCc1ccco1)OCc1ccco1 [Example 21]  post-emergent herbicidal activity index   0 (0-24% control)

[in] Item under review: CC(C#N)OP(=O)(CNCC#N)OC(C)C#N (stereo not shown) [Example 12] . Reported post-emergent herbicidal activity index?
[out] 2 (50-74% control)

[in] Same question, CCOC(=O)CNCP(=O)(OCCN1CCCC1)OCCN1CCCC1 [Example 24] this time
[out] 2 (50-74% control)

[in] Try this compound next: CCOC(=O)CNCP(=O)(OCCSC(=O)OCC)OCCSC(=O)OCC [Example 19]
[out] 2 (50-74% control)

[in] And for CCOC(=O)CNCP(=O)(O)OC(C)CC(=O)OCC (stereo not shown) [Example 25] ?
[out] 2 (50-74% control)

[in] Subsequent entry: CCCCCOC(=O)CNCP(=O)(O)OC(C)C#N (stereo not shown) [Example 6, hemihydrate]
[out] 3 (75-99% control)

[in] Also, CCOC(=O)CNCP(=O)(OCC1CCCCO1)OCC1CCCCO1 (stereo not shown) [Example 23] please.
[out] 0 (0-24% control)

[in] Please answer likewise for CCOC(=O)CNCP(=O)(O)OCC(Cl)(Cl)Cl [Example 26]
[out] 1 (25-49% control)

[in] Another compound: CCOCCOC(=O)CNCP(=O)(O)OC(C)C#N (stereo not shown) [Example 9]
[out] 4 (100% control)
